Ref: paper PMC8790063

# Test system: Giardia lamblia trophozoites
# Measurement Protocol: In vitro cytotoxicity microassay with XTT viability readout on trophozoites
# Format: cell-based
# Experimental Setup: 12.5 µM, Table S9
Assign % cell death at 12.5 µM (Hits confirmation) to each entry below.
One number for each entry, in %.

Worked cases, answers included:
1) Cc1ncc([N+](=O)[O-])n1CCO [Metronidazole, reference compound]
86.562
2) COc1ccc(/C=C2/CC3(C(=O)NC4CCCCC4)c4ccccc4CN3C2=O)cc1OC (stereo not shown)
4.160
3) COc1ccc(/C=C2/CC3(C(=O)NC(C)(C)C)c4cc(F)ccc4CN3C2=O)cc1OC (stereo not shown)
2.874

Now turn to the next compound.
Could you tell me which % cell death at 12.5 µM (Hits confirmation) is on file for CCS(=O)(=O)CCn1c([N+](=O)[O-])cnc1C [Tinidazole, reference compound] ?
98.499
